These measurements were taken from ChEMBL document CHEMBL1159146.

- Species: Cavia porcellus
- assayInfo: Compound was tested for chronotropic activity in right atria of guinea pig
- Assay type: functional
reportedProperty: pD2
Answer as a number with no unit attached.

Here is how some molecules turned out for pD2.
givenSmiles	pD2
N#CN/C(=N\CCc1ccccc1)c1cccnc1	3.85
S=C(NCCc1ccccc1Cl)c1cccnc1	4.54
N#CN/C(=N\CCO[N+](=O)[O-])c1cccnc1	4.42
N#CN/C(=N\CCc1ccccc1Cl)c1cccnc1	5.32

In the following, a different molecule is considered.
Provide only the value of recorded pD2 for S=C(NCCc1ccccc1)c1cccnc1
4.1

====

- Species on record: Cavia porcellus
- assayInfo: Compound was tested for chronotropic activity in right atria of guinea pig
- Format: functional
reportedProperty: pD2

givenSmiles	pD2
O=C(NCCO[N+](=O)[O-])c1cccnc1	<3.5

Provide only the value of recorded pD2 for O=C(NCCc1ccccc1)c1cccnc1
<3.5

Provide only the value of recorded pD2 for O=C(NCCc1ccccc1Cl)c1cccnc1
<3.5
